Target: T1, DLG3_2, Q92796
T1 sequence (Q92796 221-321, limits assumed, looked up): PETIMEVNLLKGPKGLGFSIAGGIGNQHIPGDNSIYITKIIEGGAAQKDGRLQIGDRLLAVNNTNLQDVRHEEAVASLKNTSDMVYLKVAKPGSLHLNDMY
Experiment: holdup assay
Parameters: key: below the threshold = too weak to quantify, mostly under pKd 3.1 to 4
Conditions: plain residues with an end cap or a label only (N-terminal biotin on a linker: ado-ado)
pKd below 4 gives false (0); pKd at or above it gives true (1).

These recorded examples may help you get a feel for the data.
{"binder": "MLSKQSESAI [FLVCR1, Q9Y5Y0]", "assigned class": "false (0)"}
{"binder": "GNSVLKSTQF [SLC22A12, Q96S37]", "assigned class": "true (1)"}
{"binder": "RRLPGKETMA [GRIK2, Q13002]", "assigned class": "true (1)"}
{"binder": "PEYLGLDVPV [ERBB2, P04626]", "assigned class": "false (0)"}
{"binder": "SGSLKLMTTV [DACT1, Q9NYF0]", "assigned class": "true (1)"}

Field: next binder
Input: Evaluate YLEPVLSSEL [ATP2A2, P16615;P16615-3] : pKd at minimum 4?
Output: true (1)
